Measured combination Emax of individual entries
Test system: CS1 (Chondrosarcoma)
Assay: combination Emax (second highest fraction inhibited in the dose matrix, 72 h); higher = more inhibition; extreme values may be limits of the assay
Write no unit; give the number alone.

Sample answers from the record:
[[record]]
compound = "C[C@@H](Nc1cc(F)cc(F)c1)c1cc(C(=O)N(C)C)cc2c(=O)cc(N3CCOCC3)oc12 [AZD8186] + C1CN(CCC1(C(=O)N[C@@H](CCO)C2=CC=C(C=C2)Cl)N)C3=NC=NC4=C3C=CN4 [AZD5363] (first compound max 10 µM, 7x7, partner max 10 µM)"
experimental_target = "CS1 (Chondrosarcoma)"
readout_number = 0.264

[[record]]
compound = "COc1nnc2ccc(N3CCC(c4ccc(OCCN5CCN(C)C(=O)[C@H]5C)cc4)CC3)nn12 [AZD5153] + CC1(C)CCC(CN2CCN(c3ccc(C(=O)NS(=O)(=O)c4ccc(NCC5CCOCC5)c([N+](=O)[O-])c4)c(Oc4cnc5[nH]ccc5c4)c3)CC2)=C(c2ccc(Cl)cc2)C1 [Venetoclax] (first compound max 1 µM, 7x7, partner max 1 µM)"
experimental_target = "CS1 (Chondrosarcoma)"
readout_number = 0.408


Next up:
Asked: Name the value of combination Emax reported for Cc1nc(Nc2ncc(C(=O)Nc3c(C)cccc3Cl)s2)cc(N2CCN(CCO)CC2)n1 [Dasatinib] + CC(=O)Nc1cccc(-n2c(=O)n(C3CC3)c(=O)c3c(Nc4ccc(I)cc4F)n(C)c(=O)c(C)c32)c1 [Trametinib] (first compound max 2 µM, 7x7, partner max 1 µM) when tested on CS1 (Chondrosarcoma).
Given back: 0.568

Cited source: the supplement of paper PMC11061612
